Data origin, for the record: paper PMC9953885

- subject of test: human pancreatic lipase (hPL) (Homo sapiens)
- Construct: gene PNLIP
- Sequence (P16233 17-465): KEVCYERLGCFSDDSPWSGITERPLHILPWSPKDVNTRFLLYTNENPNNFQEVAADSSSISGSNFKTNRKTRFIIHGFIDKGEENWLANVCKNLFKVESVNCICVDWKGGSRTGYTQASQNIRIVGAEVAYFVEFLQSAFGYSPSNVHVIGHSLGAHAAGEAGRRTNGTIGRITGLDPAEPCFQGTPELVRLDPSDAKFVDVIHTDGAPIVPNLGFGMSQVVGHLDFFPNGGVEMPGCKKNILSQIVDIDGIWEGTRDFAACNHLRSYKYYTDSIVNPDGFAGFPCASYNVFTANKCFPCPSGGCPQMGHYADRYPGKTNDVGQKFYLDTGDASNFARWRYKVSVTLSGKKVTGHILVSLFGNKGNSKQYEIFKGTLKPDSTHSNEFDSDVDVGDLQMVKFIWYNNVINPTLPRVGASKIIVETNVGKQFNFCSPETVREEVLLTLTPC
- condition summary: 10 µM; inhibitor
measure name: % of control remaining (%)
Express the result in % but write the number alone.

Item: `CN/C(=N\CCSCc1nc[nH]c1C)NC#N` | % of control remaining: 111.11

Entry `O=c1cc(-c2ccc(O)c(O)c2)oc2c([C@@H]3O[C@H](CO)[C@@H](O)[C@H](O)[C@H]3O)c(O)cc(O)c12` , % of control remaining reported as 76.06

`CC(=O)NC[C@H]1CN(c2ccc(N3CCOCC3)c(F)c2)C(=O)O1` has a reported % of control remaining of 91.81

Entry under test: `C=C1C(=O)[C@]23[C@H](O)[C@H]1CC[C@H]2[C@@]12CO[C@]3(O)[C@@H](O)[C@@H]1C(C)(C)CC[C@@H]2O` . Its % of control remaining was 66.82
